B1: HDV Ribozyme (parent)
chain: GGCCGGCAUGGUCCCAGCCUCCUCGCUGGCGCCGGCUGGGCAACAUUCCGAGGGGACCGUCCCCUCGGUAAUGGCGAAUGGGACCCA

Variants of: B1
ASSAY_TEXT: self-cleavage, relative activity (ratio to wild type); higher = more cleavage; co-transcriptional
READOUT: self-cleavage
Write the number on its own, no unit after it.

C49U G74C
0.374
G5U U79G
0
U20A U69A
0
G52U C64U
0.881
U9G G34A
0.344

Please turn your attention to the following entry.
Measured self-cleavage of A45G G81U : 0.208
